From: PubChem BioAssay (NCI)

System: HCC-2998 colon
run description: NCI tumour cell line growth inhibition, 48 h
measured property: TGI

Simply: `Cc1ccc(-[n+]2c3cc(N)c(C)cc3nc3cc(C)c(Nc4ccccc4)cc32)cc1` , HCC-2998 colon, TGI = 1.82 µM

Here `CN(C)c1ccc(/C=N/Nc2nc3ccccc3c(=O)n2-c2ccccc2)cc1` was tested on HCC-2998 colon, and its TGI came to > 100 µM

# TGI measured on HCC-2998 colon for item `CC(=O)OC(Cc1cc(C=C(C(F)(F)F)C(F)(F)F)cc(C)n1)(C(F)(F)F)C(F)(F)F` = 13.3 µM

// assay HCC-2998 colon, entry `CS(=O)(=O)CCNCc1nc(-c2ccc3ncnc(Nc4ccc(F)c(Cl)c4)c3c2)cs1` , TGI value = > 25 µM

Response field TGI (HCC-2998 colon) for item `COc1ccc(N2C=Nn3c(nc4sc(C)c(C)c4c3=O)C2)cc1` : > 100 µM

Form: item CCCCOC(=O)C(=O)C(CCC(=O)c1ccc(C)cc1)C(=O)C=C(C)C (stereo not given) ; test system HCC-2998 colon; TGI: > 100 µM

Sample `CC[C@H](C)N(CCN)C(=O)c1cc2ccccc2c(-c2ccccc2Cl)n1` , system: HCC-2998 colon. Its TGI is 9.06 µM

Kindly note: HCC-2998 colon, `O=c1[nH]nc(Cc2ccccc2)n1/N=C/c1c[nH]c2ccccc12` , TGI value reported: > 100 µM

The compound CCC1C(=O)C[C@H]2[C@@H]3C(O)CC4=CC(=O)CC[C@]4(C)[C@H]3CC[C@]12C (stereo not given in full) , when measured on HCC-2998 colon, yielded TGI of > 50 µM

HCC-2998 colon data for `O=C(Nc1ccccc1F)c1c(O)nc2sccn2c1=O` ; its TGI: > 10 µM
